Test system: SK-MEL-5 melanoma
assay-explanation: NCI tumour cell line growth inhibition, 48 h; in the data active means GI50 below about 0.43 µM; inactive means the rest
Answer with one of the outcomes given here: active, inactive

Solved entries:
>  <compound>
CN(C)CCCC1(c2ccc(F)cc2)OCc2cc(-c3csc4ccccc34)ccc21 (stereo unspecified)

>  <assay-target>
SK-MEL-5 melanoma

>  <group>
inactive

$$$$
>  <compound>
COc1ccccc1CNCCCN1C(=O)c2ccc3c4c(ccc(c24)C1=O)C(=O)N(CCCNCc1ccccc1OC)C3=O

>  <assay-target>
SK-MEL-5 melanoma

>  <group>
active

$$$$
>  <compound>
c1cc(OCCCCCOc2cccc(-c3nc4ccccc4[nH]3)c2)cc(-c2nc3ccccc3[nH]2)c1

>  <assay-target>
SK-MEL-5 melanoma

>  <group>
inactive

$$$$
>  <compound>
CCCCCCCCCCCCOC1C(C(COC2OC(C(O)CO)C3OC(C)(C)OC23)OC(=O)Nc2ccccc2)OC2OC(C)(C)OC21 (stereo unspecified)

>  <assay-target>
SK-MEL-5 melanoma

>  <group>
inactive

$$$$
>  <compound>
FC(F)(F)c1cccc(CNC2CCN(CCc3ccccc3)CC2)c1

>  <assay-target>
SK-MEL-5 melanoma

>  <group>
inactive

$$$$

Task item: # lookup: test call for `COc1cc(NC(=O)COc2ccccc2)c(C(N)=O)cc1OC`
Reply: inactive

* * *

Attribute: TGI
System: ACHN renal
assay-explanation: NCI tumour cell line growth inhibition, 48 h

>  <molecule>
CC(C)CCCC(C)C1CCC2C3CC([N+](=O)[O-])=C4CC(O)CCC4(C)C3CCC12C (stereo not drawn)

>  <TGI>
> 100 µM

$$$$

Task item: Give TGI for C/C=C1/C=CC2c3[nH]c4ccccc4c3CCN2C1 (stereo not drawn)
Reply: > 400 µM

Task item: Give TGI for `O=C(/C=C(\[O-])c1ccccc1)CCCCCCC(=O)/C=C(\[O-])c1ccccc1.O=C(/C=C(\[O-])c1ccccc1)CCCCCCC(=O)/C=C(\[O-])c1ccccc1.O=C(/C=C(\[O-])c1ccccc1)CCCCCCC(=O)/C=C(\[O-])c1ccccc1.[Y+3].[Y+3]`
Reply: > 50 µM

Task item: Give TGI for `CCc1nc(N)nc(N)c1-c1ccc(N2CCOCC2)c(N=[N+]=[N-])c1`
Reply: > 100 µM

Task item: Give TGI for `Cc1cn([C@H]2C[C@@H](N3C(=O)c4ccccc4C3=O)[C@@H](CO[Si](C)(C)C(C)(C)C)O2)c(=O)[nH]c1=O`
Reply: > 100 µM

Task item: Give TGI for `CNS(=O)(=O)Nc1nccc(Cc2c(C)c3ccc(Oc4ncccn4)cc3oc2=O)c1F`
Reply: > 100 µM

Task item: Give TGI for `COc1cc(/C=C/C(=O)c2nc3cc(F)ccc3nc2C)cc(OC)c1OC`
Reply: > 100 µM

Task item: Give TGI for `FC(F)(F)c1cccc(CNC2CCN(CCc3ccccc3)CC2)c1`
Reply: > 100 µM

Task item: Give TGI for `C(=C\c1cc[n+](CCc2ccccc2)cc1)/c1ccccc1`
Reply: > 100 µM

* * *

System: LOX IMVI melanoma
assay-explanation: NCI tumour cell line growth inhibition, 48 h
endpoint: TGI

>  <compound>
OCc1ccc(N2CCc3ccc(F)cc3C2)cc1Cl

>  <value-measured>
12.3 µM

$$$$
>  <compound>
Cc1ccc(-c2nc([P+](c3ccccc3)(c3ccccc3)c3ccccc3)c(N3CCOCC3)o2)cc1

>  <value-measured>
2.44 µM

$$$$
>  <compound>
CCOC(OCC)(OCC)C(Br)CC (stereo unspecified)

>  <value-measured>
> 100 µM

$$$$
>  <compound>
CCOC(=O)C#Cc1c(C(=O)OCC)nnn1[C@@H]1O[C@H](COC)[C@@H](OC)[C@H]1OC

>  <value-measured>
2.58 µM

$$$$

Task item: Report measured TGI on LOX IMVI melanoma; entry: `NCCCCNOCCCN`
Reply: > 100 µM

Task item: Report measured TGI on LOX IMVI melanoma; entry: `Oc1c(Br)cc(Cl)cc1C(c1cc(Cl)cc(Br)c1O)C(Cl)(Cl)Cl`
Reply: 11.4 µM
